B1: INTS3 (parent)
chain: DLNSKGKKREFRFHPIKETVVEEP

# Variants of: B1
# Assay Name: protein stability index of a GFP-peptide fusion (GPS, HEK-293T) (PSI 1-6); higher = more stable;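 further: lentivirally expressed fusions sorted by FACS into six bins by GFP to DsRed ratio, PSI derived from sequencing read proportions per bin multiplied by bin number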
# Protocol Conditions: c terminus: a fixed tail appended
Quantity Kind: protein stability index

1. K17F    2.05
2. P24Y    2.32
3. R9F    1.65
4. E10F    1.76
5. K8M    1.93
6. H14N    3.84
7. P24M    1.92
8. E22G    1.79
9. T19R    2.04
10. V20P    2.73
11. E22T    1.79
12. R9N    2.49
13. I16C    1.84
14. I16K    2.21
15. H14D    4.59
16. V21H    2.12
17. E23S    1.58
18. P15F    2.44
19. L2R    2.34
20. V20G    2.07
21. E23P    2.36
22. K5C    2.05
23. I16S    1.99
24. L2I    2.36
25. V20S    2.07
26. V20A    2.3
27. R12P    4.07
28. K7A    2.57
29. N3P    1.87
30. R12V    3.55
31. D1S    1.55
